# assay_system: T1, human beta CGRP (SEQ ID NO: 81) (human, not fully specified)
# T1 construct: also called human βCGRP; hβCGRP
# T1 peptide: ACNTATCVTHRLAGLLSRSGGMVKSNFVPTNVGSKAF
# protocol_text: SPR as in Example 5
pKd: −log10 of the molar value.
quantity_kind: pKd

• cysteine-free lipocalin mutein SEQ ID NO: 38 (designed binder, biotinylated by NHS chemistry for capture in SPR) QDSTSDLIPAPPLSKVPLQQNFQDNQFQGKWYVVGWAGNTLLREDKDPIKMQAMIYELKEDKSYNVTWVYFADKKRNYHIETFVPGSQPGEFTLGTIKSYPGETPILVRVVSTNYNQHAMVFFKGVNQNREIFEIVLYGRTKELTNELKENFIRFSKSLGLPENHIVFPVPIDQVIDGSAWSHPQFEK = 10.59
• cysteine-free lipocalin mutein SEQ ID NO: 30 (designed binder, biotinylated by NHS chemistry for capture in SPR) QDSTSDLIPAPPLSKVPLQQNFQDNQFQGKWYVVGRAGNDVLREDKDPEKMEATIYELKEDKSYNVTDVGFVQKRYMYVTHTFVPGSQPGEFTLGNIESYPGVTSALVRVVSTDYNQHAMVFVKLVKQNRELFEITLYGRTKELTSELKENFIRFSKSLGLPENHIVFPVPIDQIDGSAWSHPQFEK = 10.12
• cysteine-free lipocalin mutein SEQ ID NO: 36 (designed binder, biotinylated by NHS chemistry for capture in SPR) QDSTSDLIPAPPLSKVPLQQNFQDNQFQGKWYVVGWAGNTLLREDKDPIKMQAMIYELKEDKSYNVTWVYFADKKRNYHIETFVPGSQPGEFTLGTIKSYPGETPILVRVVSTNYNQHAMVFFKGVNQNREIFEIVLYGRTKELTNELKENFIRFSKSLGLPENHIVFPVPIDQWIDGSAWSHPQFEK = 10.66
• cysteine-free lipocalin mutein SEQ ID NO: 34 (designed binder, biotinylated by NHS chemistry for capture in SPR) QDSTSDLIPAPPLSKVPLQQNFQDNQFQGKWYVVGWAGNTLLREDKDPIKMQAMIYELKEDKSYNVTWVYFADKKINYHIETFVPGSQPGEFTLGTIKSYPGETPILVRVVSTNYNQHAMVFFKGVNQNREIFEIVLYGRTKELTNELKENFIRFSKSLGLPENHIVFPVPIDQEIDGSAWSHPQFEK = 10.60
• cysteine-free lipocalin mutein SEQ ID NO: 35 (designed binder, biotinylated by NHS chemistry for capture in SPR) QDSTSDLIPAPPLSKVPLQQNFQDNQFQGKWYVVGWAGNTLLREDKDPIKMQAMIYELKEDKSYNVTWVYFADKKVNYHIETFVPGSQPGEFTLGTIKSYPGETPILVRVVSTNYNQHAMVFFKGVNQNREIFEIVLYGRTKELTNELKENFIRFSKSLGLPENHIVFPVPIDQYIDGSAWSHPQFEK = 10.77
